# measuredOn: PknB (Mycobacterium tuberculosis)

>  <compoundString>
CN1CCN(c2ccc(Nc3nccc(-c4ccncc4)n3)cc2C(F)(F)F)CC1

>  <Kd (nM)>
78

$$$$

* * *

# measuredOn: PknB (Mycobacterium tuberculosis, UniProt P9WI81)
# Sequence (P9WI81 1-331 limits assumed): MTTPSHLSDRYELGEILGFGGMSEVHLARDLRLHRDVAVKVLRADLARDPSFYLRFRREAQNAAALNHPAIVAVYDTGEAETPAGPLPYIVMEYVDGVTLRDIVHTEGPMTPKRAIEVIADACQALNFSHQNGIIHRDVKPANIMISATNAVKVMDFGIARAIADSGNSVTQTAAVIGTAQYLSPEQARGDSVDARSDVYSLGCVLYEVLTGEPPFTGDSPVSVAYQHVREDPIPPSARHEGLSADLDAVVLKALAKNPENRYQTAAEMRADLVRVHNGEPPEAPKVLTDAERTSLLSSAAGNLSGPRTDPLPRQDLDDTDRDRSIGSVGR

>  <compoundString>
CN1CCN(c2ccc(Nc3nccc(-c4ccncc4)n3)cc2C(F)(F)F)CC1

>  <Ki>
580 nM

$$$$

* * *

# Test system: Zebrafish (Danio rerio) embryos
# runConditions: 5 days

>  <compoundString>
CN1CCN(c2ccc(Nc3nccc(-c4ccncc4)n3)cc2C(F)(F)F)CC1

>  <% D. rario survival @ 5 μM>
30%

$$$$
>  <compoundString>
CN1CCN(c2ccc(Nc3nccc(-c4ccc5ccccc5c4)n3)cc2C(F)(F)F)CC1

>  <% D. rario survival @ 5 μM>
~100%

$$$$
>  <compoundString>
CN1CCN(c2ccc(Nc3nccc(-c4ccccc4)n3)cc2C(F)(F)F)CC1

>  <% D. rario survival @ 5 μM>
~100%

$$$$
>  <compoundString>
Cc1ccc(-c2ccnc(Nc3ccc(N4CCN(C)CC4)c(C(F)(F)F)c3)n2)cc1

>  <% D. rario survival @ 5 μM>
0%

$$$$
>  <compoundString>
CN1CCN(c2ccc(Nc3nccc(-c4ccnc(Cl)c4)n3)cc2C(F)(F)F)CC1

>  <% D. rario survival @ 5 μM>
~100%

$$$$
>  <compoundString>
CN1CCN(c2ccc(Nc3nccc(-c4cccc([N+](=O)[O-])c4)n3)cc2C(F)(F)F)CC1

>  <% D. rario survival @ 5 μM>
0%

$$$$

Attribution: paper PMC8757511
